Test: Toxicity in mouse HN9.10 cells expressing human KOR assessed as cell viability at 1 mM after 24 hrs by XTT assay
Format: cell-based
Conditions: read-out: Activity
measurement-label: viability at 24 h, 1000 µM (%)
Your answer is read as %, so omit the unit and give the number.

Below, each entry is followed by its recorded viability at 24 h, 1000 µM result.
• H-YGGFLRIRPK-NH2 = 100
• H-YGGFLRIRPK-OH = 100

Turning to the following substance.
input: What does the data say about its viability at 24 h, 1000 µM? Entry: H-YGPFLRIRPK-NH2
output: 100
